- target under test: P2X7 receptor (Homo sapiens (Human), UniProt Q99572)
- Sequence (Q99572 whole entry): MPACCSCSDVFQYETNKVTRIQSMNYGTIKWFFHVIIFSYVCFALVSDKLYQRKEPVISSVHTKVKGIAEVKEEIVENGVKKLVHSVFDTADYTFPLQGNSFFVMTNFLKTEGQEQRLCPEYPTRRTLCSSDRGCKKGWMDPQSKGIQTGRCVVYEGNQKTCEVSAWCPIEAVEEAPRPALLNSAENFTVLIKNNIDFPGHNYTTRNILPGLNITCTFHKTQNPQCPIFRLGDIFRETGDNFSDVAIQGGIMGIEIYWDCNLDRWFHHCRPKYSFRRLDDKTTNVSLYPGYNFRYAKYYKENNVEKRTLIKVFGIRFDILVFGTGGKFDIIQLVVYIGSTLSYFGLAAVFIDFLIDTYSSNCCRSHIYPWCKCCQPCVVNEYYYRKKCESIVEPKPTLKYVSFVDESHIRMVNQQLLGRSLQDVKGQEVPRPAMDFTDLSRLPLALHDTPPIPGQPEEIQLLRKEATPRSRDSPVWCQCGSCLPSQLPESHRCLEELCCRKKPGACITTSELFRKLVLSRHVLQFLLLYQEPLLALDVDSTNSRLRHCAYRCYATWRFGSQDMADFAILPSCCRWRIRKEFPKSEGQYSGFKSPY
- measurement description: YO-PRO-1 Uptake Assay (large pore form, Bz-ATP stimulated)
- Type: cell-based
- test parameters: HEK-293 cells stably transfected with P2X7 receptor; Bz-ATP EC80 (30 μM); 5 μM YO-PRO-1
experimental readout: IC50 (nM)
Report as a plain number; the unit nM is understood.

Lab note: need IC50 with P2X7 receptor (Homo sapiens (Human), UniProt Q99572) for entry O=C(NCC(c1scnc1C(F)F)N1CCC(F)(F)CC1)c1c(F)cccc1Cl (stereo not drawn) , please look it up.
82

Report IC50 for Cc1ncsc1C(CNC(=O)c1c(F)cccc1Cl)N1CCC(Oc2ccccc2)CC1 (stereo not drawn) tested on P2X7 receptor (Homo sapiens (Human), UniProt Q99572).
79

For P2X7 receptor (Homo sapiens (Human), UniProt Q99572), provide IC50 of Cc1ncsc1C(CNC(=O)c1cccc2ncccc12)N1CCOC(c2ccc(F)cc2F)C1 (stereo not drawn) please.
79
